The origin of these recorded values is patent US20100152129A1.

Tested on: Panc-1 cell line
Assay: Gene expression profile using RTQ-PCR
Format: cell-based
Conditions: Panc1, RTQ-PCR
Each entry below carries its reported STAT4 gene expression vs control cells with no drug treatment.
READOUT NAME: STAT4 gene expression vs control cells with no drug treatment (log 2 fold ratio)

| COMPOUND | UNIT SYMBOL | NUMERIC RESULT |
| --- | --- | --- |
| CN1CCC(c2c(O)cc(O)c3c(=O)cc(-c4ccccc4Cl)oc23)C(O)C1 (stereo not shown) [drawing 5] | log 2 fold ratio | −1.39 |
| Nc1ccn([C@@H]2O[C@H](CO)[C@@H](O)C2(F)F)c(=O)n1 [drawing 1] | log 2 fold ratio | −0.54 |
| CN1CC[C@@H](c2c(O)cc(O)c3c(=O)cc(-c4ccc(C(F)(F)F)cc4Cl)oc23)[C@@H]1CO.Cl [drawing 3] | log 2 fold ratio | −1.52 |
| CC[C@H](CO)Nc1nc(NCc2ccccc2)c2ncn(C(C)C)c2n1 [drawing 2] | log 2 fold ratio | −1.66 |

====

Tested on: Panc-1 cells
Experiment: Protein expression using high content cell imaging system, and efficacy score
Type: cell-based
Conditions: 6 hours; cumulative over proteins of Table 7

| COMPOUND | Efficacy score |
| --- | --- |
| Nc1ccn([C@@H]2O[C@H](CO)[C@@H](O)C2(F)F)c(=O)n1 | 1.6 |
| CN1CC[C@@H](c2c(O)cc(O)c3c(=O)cc(-c4ccc(C(F)(F)F)cc4Cl)oc23)[C@@H]1CO.Cl (relative stereo) [P1446A] | 2.1 |
| CN1CC[C@H](c2c(O)cc(O)c3c(=O)cc(-c4ccccc4Cl)oc23)[C@H](O)C1 | 1.6 |
| CN1CC[C@@H](c2c(O)cc(O)c3c(=O)cc(-c4ccccc4Cl)oc23)[C@@H]1CO.Cl (relative stereo) | 4.7 |
| CC[C@H](CO)Nc1nc(NCc2ccccc2)c2ncn(C(C)C)c2n1 | 1.9 |

====

Test system: Panc-1 cells
Assay: Protein expression using high content cell imaging system, and efficacy score; for GADD45-α protein expression: test concentration or dose not given here
Type: cell-based
Conditions: 16 hours post treatment; control 13
Listed here are compounds together with their documented GADD45-α protein expression.

| COMPOUND | GADD45-α protein expression (fluorescence units) |
| --- | --- |
| CN1CC[C@@H](c2c(O)cc(O)c3c(=O)cc(-c4ccc(C(F)(F)F)cc4Cl)oc23)[C@@H]1CO.Cl (relative stereo) [P1446A] | 46 |
| CN1CC[C@H](c2c(O)cc(O)c3c(=O)cc(-c4ccccc4Cl)oc23)[C@H](O)C1 [Flavopiridol] | 15 |
| Nc1ccn([C@@H]2O[C@H](CO)[C@@H](O)C2(F)F)c(=O)n1 [Gemcitabine, 2′, 2′-difluorodeoxycytidine] | 70 |
| CC[C@H](CO)Nc1nc(NCc2ccccc2)c2ncn(C(C)C)c2n1 [Roscovitine] | 49 |
| CN1CC[C@@H](c2c(O)cc(O)c3c(=O)cc(-c4ccccc4Cl)oc23)[C@@H]1CO.Cl (relative stereo) [P276-00] | 23 |

====

Test system: Panc-1 cell line
Assay: Gene expression profile using RTQ-PCR
Type: cell-based
Conditions: Panc1, RTQ-PCR
READOUT NAME: CDK8 gene expression vs control cells with no drug treatment (log 2 fold ratio)

| COMPOUND | UNIT SYMBOL | NUMERIC RESULT |
| --- | --- | --- |
| CN1CCC(c2c(O)cc(O)c3c(=O)cc(-c4ccccc4Cl)oc23)C(O)C1 (centres unmarked) [drawing 14] | log 2 fold ratio | −0.99 |
| CN1CC[C@@H](c2c(O)cc(O)c3c(=O)cc(-c4ccccc4Cl)oc23)[C@@H]1CO.Cl | log 2 fold ratio | 0.11 |
| Nc1ccn([C@@H]2O[C@H](CO)[C@@H](O)C2(F)F)c(=O)n1 [drawing 10] | log 2 fold ratio | 0.86 |
| CC[C@H](CO)Nc1nc(NCc2ccccc2)c2ncn(C(C)C)c2n1 [drawing 11] | log 2 fold ratio | 0.82 |
| CN1CC[C@@H](c2c(O)cc(O)c3c(=O)cc(-c4ccc(C(F)(F)F)cc4Cl)oc23)[C@@H]1CO.Cl [drawing 12] | log 2 fold ratio | 0.20 |
